Could you please report measured CC50 at 96 h for the items listed next?
experiment-summary: Cytotoxicity against Homo sapiens (human) MT4 cells assessed as inhibition of cell vaibility after 96 hr by MTT assay
Assay type: cell-based

**Q:** May I ask what CC50 at 96 h has been recorded for "COc1ccc(-c2nnc3nnc4c5ccccc5[nH]c4n23)cc1" ?
**A:** > 100 µM

**Q:** Entry "O=[N+]([O-])c1ccc(-c2nnc3nnc4c5ccccc5[nH]c4n23)cc1" please
**A:** > 100 µM

**Q:** Entry "Oc1cccc(-c2nnc3nnc4c5ccccc5[nH]c4n23)c1" please
**A:** > 100 µM

**Q:** Entry "c1ccc2c(-c3nnc4nnc5c6ccccc6[nH]c5n34)c3ccccc3cc2c1" please
**A:** 56 µM

**Q:** Entry "COc1cccc(-c2nnc3nnc4c5ccccc5[nH]c4n23)c1" please
**A:** 47 µM

**Q:** Entry "Oc1ccc(-c2nnc3nnc4c5ccccc5[nH]c4n23)cc1" please
**A:** > 100 µM

**Q:** Entry "Clc1ccc(-c2nnc3nnc4c5ccccc5[nH]c4n23)cc1" please
**A:** > 100 µM

**Q:** Entry "c1ccc(Oc2cccc(-c3nnc4nnc5c6ccccc6[nH]c5n34)c2)cc1" please
**A:** > 100 µM

**Q:** Entry "c1ccc(-c2nnc3nnc4c5ccccc5[nH]c4n23)cc1" please
**A:** > 100 µM

**Q:** Entry "Fc1ccc(-c2nnc3nnc4c5ccccc5[nH]c4n23)cc1" please
**A:** > 100 µM

**Q:** Entry "Cc1ccc(-c2nnc3nnc4c5ccccc5[nH]c4n23)cc1" please
**A:** > 100 µM

----------
Tested on: Respiratory syncytial virus
experiment-summary: Antiviral activity against Respiratory syncytial virus infected African green monkey Vero 76 cells assessed as reduction in plaque number treated after viral infection measured after 5 days by plaque reduction assay
Format: functional, organism-based
condition-details: human respiratory syncytial virus, 120 h
measured-parameter: EC50

**Q:** May I ask what EC50 has been recorded for "CSc1ccc(-c2nnc3nnc4c5ccccc5[nH]c4n23)cc1" ?
**A:** > 90 µM

**Q:** Entry "Clc1cccc(-c2nnc3nnc4c5ccccc5[nH]c4n23)c1" please
**A:** > 60 µM

**Q:** Entry "Brc1cccc(-c2nnc3nnc4c5ccccc5[nH]c4n23)c1" please
**A:** > 100 µM

**Q:** Entry "COc1ccccc1-c1nnc2nnc3c4ccccc4[nH]c3n12" please
**A:** > 20 µM

**Q:** Entry "O=[N+]([O-])c1ccccc1-c1nnc2nnc3c4ccccc4[nH]c3n12" please
**A:** > 100 µM

**Q:** Entry "c1ccc(-c2nnc3nnc4c5ccccc5[nH]c4n23)cc1" please
**A:** > 100 µM

**Q:** Entry "COc1cccc(-c2nnc3nnc4c5ccccc5[nH]c4n23)c1" please
**A:** > 65 µM

**Q:** Entry "Fc1ccc(-c2nnc3nnc4c5ccccc5[nH]c4n23)cc1" please
**A:** > 100 µM

**Q:** Entry "Oc1ccc(-c2nnc3nnc4c5ccccc5[nH]c4n23)cc1" please
**A:** > 100 µM

**Q:** Entry "O=[N+]([O-])c1cccc(-c2nnc3nnc4c5ccccc5[nH]c4n23)c1" please
**A:** > 100 µM

**Q:** Entry "c1ccc(Oc2cccc(-c3nnc4nnc5c6ccccc6[nH]c5n34)c2)cc1" please
**A:** > 80 µM

----------
Tested on: Respiratory syncytial virus
experiment-summary: Antiviral activity against Respiratory syncytial virus infected African green monkey Vero 76 cells assessed as reduction in plaque number treated after viral infection measured after 5 days by plaque reduction assay
Type: functional, organism-based
condition-details: human respiratory syncytial virus, 120 h
pEC50: −log10 of the molar value.
Could you please report measured pEC50 for the items listed next?

**Q:** May I ask what pEC50 has been recorded for "Clc1ccccc1-c1nnc2nnc3c4ccccc4[nH]c3n12" ?
**A:** < 4.00

**Q:** Entry "Clc1ccc(-c2nnc3nnc4c5ccccc5[nH]c4n23)cc1" please
**A:** < 4.00

**Q:** Entry "Oc1ccccc1-c1nnc2nnc3c4ccccc4[nH]c3n12" please
**A:** < 4.15

**Q:** Entry "c1ccc2c(-c3nnc4nnc5c6ccccc6[nH]c5n34)c3ccccc3cc2c1" please
**A:** < 4.00

**Q:** Entry "O=[N+]([O-])c1ccc(-c2nnc3nnc4c5ccccc5[nH]c4n23)cc1" please
**A:** < 4.00

**Q:** Entry "COc1cc(-c2nnc3nnc4c5ccccc5[nH]c4n23)ccc1O" please
**A:** < 4.10

**Q:** Entry "COc1ccc(-c2nnc3nnc4c5ccccc5[nH]c4n23)cc1" please
**A:** < 4.00

**Q:** Entry "COc1ccc(OC)c(-c2nnc3nnc4c5ccccc5[nH]c4n23)c1" please
**A:** < 4.82

----------
System: Poliovirus 1
experiment-summary: Antiviral activity against Human poliovirus 1 strain Sabin infected African green monkey Vero 76 cells assessed as reduction in plaque number treated after viral infection measured after 2 days by plaque reduction assay
Type: functional, organism-based
condition-details: Enterovirus C, 48 h
measured-parameter: EC50

**Q:** Request - read-out EC50 | tested on Poliovirus 1 | compound "Oc1ccccc1-c1nnc2nnc3c4ccccc4[nH]c3n12"
**A:** > 70 µM

**Q:** Entry "c1ccc(Oc2cccc(-c3nnc4nnc5c6ccccc6[nH]c5n34)c2)cc1" please
**A:** > 80 µM

**Q:** Entry "c1ccc(-c2nnc3nnc4c5ccccc5[nH]c4n23)cc1" please
**A:** > 100 µM

**Q:** Entry "COc1cccc(-c2nnc3nnc4c5ccccc5[nH]c4n23)c1" please
**A:** > 65 µM

**Q:** Entry "O=[N+]([O-])c1cccc(-c2nnc3nnc4c5ccccc5[nH]c4n23)c1" please
**A:** > 100 µM

**Q:** Entry "Clc1ccc(-c2nnc3nnc4c5ccccc5[nH]c4n23)cc1" please
**A:** > 100 µM

**Q:** Entry "Cc1ccc(-c2nnc3nnc4c5ccccc5[nH]c4n23)cc1" please
**A:** > 100 µM

**Q:** Entry "CSc1ccc(-c2nnc3nnc4c5ccccc5[nH]c4n23)cc1" please
**A:** > 90 µM

**Q:** Entry "C#C[C@@]1(O)[C@H](O)[C@@H](CO)O[C@H]1n1ccc(N)nc1=O" please
**A:** 18 µM

**Q:** Entry "COc1ccc(OC)c(-c2nnc3nnc4c5ccccc5[nH]c4n23)c1" please
**A:** > 15 µM

**Q:** Entry "COc1ccccc1-c1nnc2nnc3c4ccccc4[nH]c3n12" please
**A:** > 20 µM

**Q:** Entry "Clc1cccc(-c2nnc3nnc4c5ccccc5[nH]c4n23)c1" please
**A:** > 60 µM

**Q:** Entry "Oc1cccc(-c2nnc3nnc4c5ccccc5[nH]c4n23)c1" please
**A:** > 100 µM

**Q:** Entry "COc1ccc(-c2nnc3nnc4c5ccccc5[nH]c4n23)cc1" please
**A:** > 100 µM

**Q:** Entry "O=[N+]([O-])c1ccccc1-c1nnc2nnc3c4ccccc4[nH]c3n12" please
**A:** > 100 µM

**Q:** Entry "Brc1cccc(-c2nnc3nnc4c5ccccc5[nH]c4n23)c1" please
**A:** > 100 µM

**Q:** Entry "COc1cc(-c2nnc3nnc4c5ccccc5[nH]c4n23)ccc1O" please
**A:** > 80 µM

----------
experiment-summary: Cytotoxicity against Bos taurus (bovine) MDBK cells assessed as inhibition of cell viability after 48 to 120 hr by MTT assay
Type: cell-based
condition-details: cattle
measured-parameter: CC50

**Q:** May I ask what CC50 has been recorded for "c1ccc(-c2nnc3nnc4c5ccccc5[nH]c4n23)cc1" ?
**A:** > 100 µM

**Q:** Entry "Clc1ccccc1-c1nnc2nnc3c4ccccc4[nH]c3n12" please
**A:** > 100 µM

**Q:** Entry "COc1ccc(OC)c(-c2nnc3nnc4c5ccccc5[nH]c4n23)c1" please
**A:** 12 µM

**Q:** Entry "c1ccc(Oc2cccc(-c3nnc4nnc5c6ccccc6[nH]c5n34)c2)cc1" please
**A:** > 100 µM

----------
Could you please report measured CC50 for the items listed next?
experiment-summary: Cytotoxicity against Mesocricetus auratus (Syrian golden hamster) BHK21cells assessed as inhibition of cell viability after 48 to 120 hr by MTT assay
Type: cell-based
condition-details: BHK-21 cells

**Q:** May I ask what CC50 has been recorded for "Brc1cccc(-c2nnc3nnc4c5ccccc5[nH]c4n23)c1" ?
**A:** > 100 µM

**Q:** Entry "COc1ccc(-c2nnc3nnc4c5ccccc5[nH]c4n23)cc1OC" please
**A:** > 100 µM

**Q:** Entry "Clc1ccccc1-c1nnc2nnc3c4ccccc4[nH]c3n12" please
**A:** > 100 µM

----------
Tested on: Yellow fever virus
experiment-summary: Antiviral activity against Yellow fever virus infected Syrian hamster BHK-21 cells assessed as protection against virus-induced cytopathogenicity treated 1 hr after viral infection measured after 3-4 days by MTT method
Assay type: functional, organism-based
measured-parameter: EC50

**Q:** May I ask what EC50 has been recorded for "Clc1cccc(-c2nnc3nnc4c5ccccc5[nH]c4n23)c1" ?
**A:** > 55 µM

**Q:** Entry "c1ccc(-c2nnc3nnc4c5ccccc5[nH]c4n23)cc1" please
**A:** > 100 µM

**Q:** Entry "O=[N+]([O-])c1ccc(-c2nnc3nnc4c5ccccc5[nH]c4n23)cc1" please
**A:** > 100 µM

**Q:** Entry "COc1ccc(-c2nnc3nnc4c5ccccc5[nH]c4n23)cc1" please
**A:** > 100 µM

**Q:** Entry "Clc1ccc(-c2nnc3nnc4c5ccccc5[nH]c4n23)cc1" please
**A:** > 100 µM

**Q:** Entry "O=[N+]([O-])c1ccccc1-c1nnc2nnc3c4ccccc4[nH]c3n12" please
**A:** > 100 µM

**Q:** Entry "Cc1ccc(-c2nnc3nnc4c5ccccc5[nH]c4n23)cc1" please
**A:** > 100 µM

**Q:** Entry "c1ccc(Oc2cccc(-c3nnc4nnc5c6ccccc6[nH]c5n34)c2)cc1" please
**A:** > 100 µM

**Q:** Entry "Brc1cccc(-c2nnc3nnc4c5ccccc5[nH]c4n23)c1" please
**A:** > 100 µM

**Q:** Entry "C[C@@]1(O)[C@H](O)[C@@H](CO)O[C@H]1n1cnc2c(=O)[nH]c(N)nc21" please
**A:** 2.5 µM

**Q:** Entry "Fc1ccc(-c2nnc3nnc4c5ccccc5[nH]c4n23)cc1" please
**A:** > 100 µM

**Q:** Entry "Oc1cccc(-c2nnc3nnc4c5ccccc5[nH]c4n23)c1" please
**A:** > 100 µM

**Q:** Entry "COc1ccccc1-c1nnc2nnc3c4ccccc4[nH]c3n12" please
**A:** > 23 µM

**Q:** Entry "Oc1ccc(-c2nnc3nnc4c5ccccc5[nH]c4n23)cc1" please
**A:** > 100 µM

**Q:** Entry "COc1cccc(-c2nnc3nnc4c5ccccc5[nH]c4n23)c1" please
**A:** > 100 µM

**Q:** Entry "CSc1ccc(-c2nnc3nnc4c5ccccc5[nH]c4n23)cc1" please
**A:** > 100 µM
